molecular target: Ba/F3 L858R/T790M/C797S EGFR triple mutant cell line (Homo sapiens, UniProt P00533, T790M/C797S/L858R, cells depend on it); experiment: Cell proliferation inhibition experiment (CellTiter-Glo), Ba/F3 L858R/T790M/C797S; format: cell-based; settings: 72 hours, Cell Titer-Glo, read-out: Ba/F3 (L858R/T790M/C797S) IC50
Sequence (P00533 whole entry T790M/C797S/L858R): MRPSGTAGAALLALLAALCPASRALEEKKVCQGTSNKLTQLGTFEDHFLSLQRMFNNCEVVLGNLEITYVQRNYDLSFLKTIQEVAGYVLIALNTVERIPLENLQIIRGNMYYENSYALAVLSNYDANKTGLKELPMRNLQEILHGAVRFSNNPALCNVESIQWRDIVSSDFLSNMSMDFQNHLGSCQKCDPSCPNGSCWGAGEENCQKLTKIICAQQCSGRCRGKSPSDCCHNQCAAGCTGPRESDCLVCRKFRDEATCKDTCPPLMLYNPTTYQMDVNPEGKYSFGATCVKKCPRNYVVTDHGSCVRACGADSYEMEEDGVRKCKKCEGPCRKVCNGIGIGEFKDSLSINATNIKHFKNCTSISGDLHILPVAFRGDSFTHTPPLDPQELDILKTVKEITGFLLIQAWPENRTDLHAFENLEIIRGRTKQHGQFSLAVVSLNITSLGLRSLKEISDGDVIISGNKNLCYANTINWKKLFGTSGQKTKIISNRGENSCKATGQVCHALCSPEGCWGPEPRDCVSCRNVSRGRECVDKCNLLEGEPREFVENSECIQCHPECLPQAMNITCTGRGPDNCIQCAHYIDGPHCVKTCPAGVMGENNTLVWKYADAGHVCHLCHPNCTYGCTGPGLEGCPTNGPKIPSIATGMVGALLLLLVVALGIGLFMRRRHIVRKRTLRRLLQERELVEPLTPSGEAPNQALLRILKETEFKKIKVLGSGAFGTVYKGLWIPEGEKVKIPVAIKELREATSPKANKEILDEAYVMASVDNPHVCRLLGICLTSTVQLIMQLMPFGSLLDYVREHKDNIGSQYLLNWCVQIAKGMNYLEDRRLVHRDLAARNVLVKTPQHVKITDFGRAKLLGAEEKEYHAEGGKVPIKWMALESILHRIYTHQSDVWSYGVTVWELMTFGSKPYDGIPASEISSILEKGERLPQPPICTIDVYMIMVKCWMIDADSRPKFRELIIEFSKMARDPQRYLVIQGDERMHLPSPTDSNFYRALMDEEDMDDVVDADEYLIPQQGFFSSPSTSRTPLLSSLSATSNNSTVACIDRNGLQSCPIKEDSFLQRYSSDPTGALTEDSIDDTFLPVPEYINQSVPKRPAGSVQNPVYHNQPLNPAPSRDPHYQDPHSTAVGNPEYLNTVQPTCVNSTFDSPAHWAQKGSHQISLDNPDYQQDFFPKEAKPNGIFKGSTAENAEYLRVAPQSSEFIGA
Value kind: GI50 (nM)
The answer is to be given in nM; state only the numeric part.

Some compounds with known GI50 results, for comparison:
The compound listed as COc1cc(N2CCC(N(C)C)C(F)C2)c(-c2cnn(C)c2)cc1Nc1ncc(Br)c(Nc2ccc3nccnc3c2P(C)(C)=O)n1 (stereo not drawn) [compound 216] has a reported GI50 of 7.32

response.value for COc1cc(N2CCC(C)(N)CC2)c(-c2cnn(C)c2)cc1Nc1ncc(Br)c(Nc2ccc3nccnc3c2P(C)(C)=O)n1 [compound 113] (field: GI50) = 176

For reference, reported GI50 for COc1cc(N2CCC3(CCN(C)CC3)CC2)c(-c2cnn(C)c2)cc1Nc1ncc(Br)c(Nc2ccc3nccnc3c2P(C)(C)=O)n1 [compound 101] stands at 4.53

Lookup result for CN1CCN(c2noc3c(Nc4ncc(Br)c(Nc5ccc6nccnc6c5P(C)(C)=O)n4)cc(-c4cnn(C)c4)cc23)CC1 [compound 200] ; measured GI50: 22

// field: GI50; key: COc1cc(N2CCC(N3CC4(CN(C)C4)C3)CC2)c(-c2cnn(C)c2)cc1Nc1ncc(Br)c(Nc2ccc3nccnc3c2P(C)(C)=O)n1 [compound 172] ; value = 328

More entries:
Entry COc1cc(N2CCC(N3CCN(C)CC3)CC2)c(-c2cscn2)cc1Nc1ncc(Br)c(Nc2ccc3nccnc3c2P(C)(C)=O)n1 [compound 98] — recorded GI50 = 27.8

---

# GI50 per record follows
target: Ba/F3 L858R/T790M/C797S EGFR triple mutant cell line (Homo sapiens, UniProt P00533, T790M/C797S/L858R, cells depend on it); test: Cell proliferation inhibition experiment (CellTiter-Glo), Ba/F3 L858R/T790M/C797S; assay type: cell-based; settings: 72 hours, Cell Titer-Glo, read-out: Ba/F3 (L858R/T790M/C797S) IC50
Please state the figure in nM; there is no need to write the unit.

GI50 reported for this compound COc1nc(N2CCN(C)CC2)c(-c2cnn(C)c2)cc1Nc1ncc(Br)c(Nc2ccc3nccnc3c2P(C)(C)=O)n1 : 17.3

***
Note to self: GI50 recorded for COc1cc(N2CCOC(C)C2)c(-c2cnn(C)c2)cc1Nc1ncc(Br)c(Nc2ccc3nccnc3c2P(C)(C)=O)n1 (stereo not drawn) was 7.82

Lab book: GI50 of COc1cc(N2CCC3(CC2)CN(C)CCO3)c(-c2cnn(C)c2)cc1Nc1ncc(Br)c(Nc2ccc3nccnc3c2P(C)(C)=O)n1 noted as 1.91

---

biological target: Ba/F3 L858R/T790M/C797S EGFR triple mutant cell line (Homo sapiens, UniProt P00533, T790M/C797S/L858R, cells depend on it); assay: Cell proliferation inhibition experiment (CellTiter-Glo), Ba/F3 L858R/T790M/C797S; format: cell-based; details: 72 hours, Cell Titer-Glo, read-out: Ba/F3 (L858R/T790M/C797S) IC50
Below is a list of entries, each paired with its recorded log10(GI50) value.
Parameter value (number): base-10 log of GI50 in nM.

Lab note: COc1cc(N2CCC3CCN(CCF)C3C2)c(-c2cnn(C)c2)cc1Nc1ncc(Br)c(Nc2ccc3nccnc3c2P(C)(C)=O)n1 (stereo not drawn) [compound 205] gave log10(GI50) of 0.95

Kindly note the recorded log10(GI50) for COc1cc(N2CCC3(CCN(CC4(F)CC4)CC3)CC2)c(-c2cnn(C)c2)cc1Nc1ncc(Br)c(Nc2ccc3nccnc3c2P(C)(C)=O)n1 [compound 242] , which is 0.49

Short answer for COc1cc(N(C)C)c(-c2cnn(C)c2)cc1Nc1ncc(Br)c(Nc2ccc3nccnc3c2P(C)(C)=O)n1 [compound 32] : log10(GI50) was 0.74

Record COc1cc(N2CCOCC2)c(-n2cc(C)cn2)cc1Nc1ncc(Br)c(Nc2ccc3nccnc3c2P(C)(C)=O)n1 [compound 73] . Reported log10(GI50): 2.73

# compound CCc1cnc(Nc2cc(-c3cnn(C)c3)c(N3CCOCC3)cc2OC)nc1Nc1ccc2nccnc2c1P(C)(C)=O [Compound 31] ; its log10(GI50) = 1.11

Lab note: next compound to report on.
According to the records, this compound COc1cc(N2CCN3CCCC[C@H]3C2)c(-c2cnn(C)c2)cc1Nc1ncc(Br)c(Nc2ccc3nccnc3c2P(C)(C)=O)n1 [compound 166] displays log10(GI50) of 0.70

---

target: wild-type EGFR (Homo sapiens); construct: purchased Signalchem; experiment: Enzymology experiment in vitro (HTRF/FRET kinase activity), wild-type EGFR; type: biochemical; details: HTRF KinEASE-TK, read-out: EGFR (WT) IC50
Sequence (P00533 25-1210): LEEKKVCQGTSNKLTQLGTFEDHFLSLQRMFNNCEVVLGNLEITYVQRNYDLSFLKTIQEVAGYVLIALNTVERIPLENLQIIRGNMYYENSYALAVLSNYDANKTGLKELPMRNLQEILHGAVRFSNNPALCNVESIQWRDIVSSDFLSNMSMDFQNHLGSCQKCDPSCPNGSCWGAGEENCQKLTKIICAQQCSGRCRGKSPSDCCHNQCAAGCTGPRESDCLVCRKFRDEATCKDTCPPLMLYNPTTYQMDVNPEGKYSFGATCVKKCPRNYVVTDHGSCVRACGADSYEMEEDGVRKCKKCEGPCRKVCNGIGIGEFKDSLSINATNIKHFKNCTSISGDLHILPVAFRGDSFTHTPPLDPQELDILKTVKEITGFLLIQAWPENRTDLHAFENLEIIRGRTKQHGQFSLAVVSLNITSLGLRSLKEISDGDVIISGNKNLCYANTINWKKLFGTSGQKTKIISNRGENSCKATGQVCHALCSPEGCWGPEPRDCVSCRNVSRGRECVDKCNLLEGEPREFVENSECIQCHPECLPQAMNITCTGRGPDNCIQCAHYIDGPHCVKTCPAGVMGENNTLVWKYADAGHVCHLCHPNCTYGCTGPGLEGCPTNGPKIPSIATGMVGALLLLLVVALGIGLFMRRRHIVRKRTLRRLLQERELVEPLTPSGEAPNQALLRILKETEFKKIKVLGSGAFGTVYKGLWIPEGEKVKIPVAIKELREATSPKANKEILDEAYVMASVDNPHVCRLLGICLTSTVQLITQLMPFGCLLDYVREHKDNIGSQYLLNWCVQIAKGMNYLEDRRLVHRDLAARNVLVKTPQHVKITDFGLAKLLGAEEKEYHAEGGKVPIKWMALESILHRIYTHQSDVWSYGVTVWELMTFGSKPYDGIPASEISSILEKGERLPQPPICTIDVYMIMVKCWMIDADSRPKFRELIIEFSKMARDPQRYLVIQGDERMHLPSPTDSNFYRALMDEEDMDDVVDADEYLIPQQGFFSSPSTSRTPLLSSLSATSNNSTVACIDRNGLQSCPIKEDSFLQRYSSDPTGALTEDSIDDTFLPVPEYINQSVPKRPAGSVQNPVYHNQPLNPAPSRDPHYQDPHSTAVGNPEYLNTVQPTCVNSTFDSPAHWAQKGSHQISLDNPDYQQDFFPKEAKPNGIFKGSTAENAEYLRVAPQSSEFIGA
Value kind: pIC50
Would you please state pIC50, meaning minus log10 of the concentration in mol/L, as a bare number?

Recorded pIC50 (compound COc1cc(N2CCC(N3CCN(C)CC3)C(F)C2)c(-c2cnn(C)c2)cc1Nc1ncc(Br)c(Nc2ccccc2N(C)S(=O)(=O)C2CC2)n1 (stereo not drawn) ): 7.96

For reference, reported pIC50 for COc1cc(C23CCOCC2C3)c(-c2cnn(C)c2)cc1Nc1ncc(Br)c(Nc2ccc3nccnc3c2P(C)(C)=O)n1 (stereo not drawn) stands at 6.94

Entry under test: COc1cc(N2CCC(C)(O)CC2)c(-c2cnn(C)c2)cc1Nc1ncc(Br)c(Nc2ccc3nccnc3c2P(C)(C)=O)n1 . Its pIC50 was 8.94

// pIC50 value for Cn1cc(-c2cc(Nc3ncc(Br)c(Nc4ccccc4P(C)(C)=O)n3)c(OCC(F)(F)F)nc2N2CCOCC2)cn1 : 6.92

The reported value for CN1CCOc2c(Nc3ncc(Br)c(Nc4ccc5nccnc5c4P(C)(C)=O)n3)cc(-c3cnn(C)c3)cc21 in terms of pIC50 is 7.69

Now take the following compound into account.
Please fill in: pIC50 reported for COc1cc(N2CCN(S(=O)(=O)C3CC3)CC2)c(-c2cnn(C)c2)cc1Nc1ncc(Br)c(Nc2ccc3nccnc3c2P(C)(C)=O)n1 = 8.11

---

target: Ba/F3 De119/T790M/C797S EGFR triple mutant cell line (Homo sapiens, UniProt P00533, T790M/C797S, cells depend on it, form not given); assay: Cell proliferation inhibition experiment (CellTiter-Glo), Ba/F3 De119/T790M/C797S; type: cell-based; conditions: Ba/F3 Del19/T790M/C797S EGFR triple mutant cells, 72 hours, Cell Titer-Glo; read-out: Ba/F3 (Del19/T790M/C797S) IC50
Sequence (P00533 with tags, fused parts or gaps DEL746-750/T790M/C797S, form open): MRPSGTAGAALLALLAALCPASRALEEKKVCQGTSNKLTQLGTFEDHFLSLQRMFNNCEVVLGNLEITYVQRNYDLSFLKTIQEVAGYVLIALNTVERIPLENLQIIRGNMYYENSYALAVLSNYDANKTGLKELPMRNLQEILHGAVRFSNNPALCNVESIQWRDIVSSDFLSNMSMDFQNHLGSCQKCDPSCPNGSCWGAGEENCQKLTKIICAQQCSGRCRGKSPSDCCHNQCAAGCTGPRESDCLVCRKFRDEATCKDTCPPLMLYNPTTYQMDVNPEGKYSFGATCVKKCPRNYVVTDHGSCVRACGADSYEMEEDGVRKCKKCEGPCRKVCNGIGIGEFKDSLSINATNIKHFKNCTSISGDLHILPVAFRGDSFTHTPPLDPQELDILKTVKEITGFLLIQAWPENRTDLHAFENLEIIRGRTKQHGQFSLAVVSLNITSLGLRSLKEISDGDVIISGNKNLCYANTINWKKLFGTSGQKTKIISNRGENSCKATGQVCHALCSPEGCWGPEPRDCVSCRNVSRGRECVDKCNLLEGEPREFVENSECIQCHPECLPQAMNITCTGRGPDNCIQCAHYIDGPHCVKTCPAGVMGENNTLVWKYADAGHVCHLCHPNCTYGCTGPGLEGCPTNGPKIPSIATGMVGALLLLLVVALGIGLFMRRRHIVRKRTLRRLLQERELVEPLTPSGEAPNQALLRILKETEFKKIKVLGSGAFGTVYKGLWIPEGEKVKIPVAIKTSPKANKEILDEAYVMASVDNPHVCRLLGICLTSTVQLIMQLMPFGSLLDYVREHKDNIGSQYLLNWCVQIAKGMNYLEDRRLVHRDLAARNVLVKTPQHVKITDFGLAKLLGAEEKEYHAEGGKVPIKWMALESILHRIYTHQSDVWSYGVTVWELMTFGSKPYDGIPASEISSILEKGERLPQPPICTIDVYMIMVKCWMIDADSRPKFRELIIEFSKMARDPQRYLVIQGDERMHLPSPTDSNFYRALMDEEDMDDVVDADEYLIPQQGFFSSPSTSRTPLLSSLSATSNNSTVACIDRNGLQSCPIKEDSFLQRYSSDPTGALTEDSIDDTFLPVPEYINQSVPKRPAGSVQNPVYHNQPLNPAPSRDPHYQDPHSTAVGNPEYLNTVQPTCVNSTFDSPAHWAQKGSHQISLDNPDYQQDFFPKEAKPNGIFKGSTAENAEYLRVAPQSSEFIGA
One threshold, 5 nM, splits the recorded GI50 values: lower ones are class 1, equal or higher ones are class 0.

# count of solved cases: 6
Prompt: Take the compound COc1cc(N2CCN(C)CC2)c(-c2cnn(C)c2)cc1Nc1ncc(Br)c(Nc2ccc3nccnc3c2P(C)(C)=O)n1 and say whether its GI50 is less than 5 nM.
Response: class 1

Prompt: Is GI50 of COc1cc(N2CCC(N3CC(CF)C3)CC2)c(-c2cnn(C)c2)cc1Nc1ncc(Br)c(Nc2ccc3nccnc3c2P(C)(C)=O)n1 strictly below 5 nM?
Response: class 0

Prompt: Strictly below 5 nM in GI50? COc1cc(N(C)C)c(-c2cnn(C)c2)cc1Nc1ncc(Br)c(Nc2ccc3nccnc3c2P(C)(C)=O)n1
Response: class 1

Prompt: # strict comparison: is reported GI50 < 5 nM? input = COc1cc(C23CCOCC2C3)c(-c2cnn(C)c2)cc1Nc1ncc(Br)c(Nc2ccc3nccnc3c2P(C)(C)=O)n1 (stereo not shown)
Response: class 0

Prompt: Given the entry COc1cc(N2CCOCC2)c(-c2cnn(C)c2)cc1Nc1ncc(Br)c(Nc2ccc3nccnc3c2NS(C)(=O)=O)n1 , would its reported GI50 be below 5 nM?
Response: class 1

Prompt: Please state whether GI50 is below 5 nM for CN1CCN(c2noc3c(Nc4ncc(Br)c(Nc5ccc6nccnc6c5P(C)(C)=O)n4)cc(-c4cnn(C)c4)cc23)CC1
Response: class 0

Others:
Prompt: GI50 under 5 nM? Item: COc1cc(N2CC3(COC3)C2)c(-c2cnn(C)c2)cc1Nc1ncc(Br)c(Nc2ccc3nccnc3c2P(C)(C)=O)n1
Response: class 0

---

biological target: Ba/F3 L858R/T790M/C797S EGFR triple mutant cell line (Homo sapiens, UniProt P00533, T790M/C797S/L858R, cells depend on it); assay: Cell proliferation inhibition experiment (CellTiter-Glo), Ba/F3 L858R/T790M/C797S; format: cell-based; details: 72 hours, Cell Titer-Glo, read-out: Ba/F3 (L858R/T790M/C797S) IC50
Here the recorded GI50 is given for each entry.
Numeric answer only, unit nM assumed.

Guide cases for GI50, answers given:
get_value(item= COc1cc(N2CCCCC2)c(-c2cnn(C)c2)cc1Nc1ncc(Br)c(Nc2ccc3nccnc3c2P(C)(C)=O)n1 [compound 66] , readout=GI50) returns 10.8

The measured GI50 associated with COc1ccc(-n2cccn2)cc1Nc1ncc(Br)c(Nc2ccc3nccnc3c2P(C)(C)=O)n1 [compound 20] reads 629

Please fill in: GI50 reported for COc1ccc(-c2cnn(C)c2)cc1Nc1ncc(Br)c(Nc2ccc3nccnc3c2P(C)(C)=O)n1 [compound 5] = 12.7

GI50 in this record for COc1cc(N2CCC(N3CC(C)N(C)C(C)C3)CC2)c(-c2cnn(C)c2)cc1Nc1ncc(Br)c(Nc2ccc3nccnc3c2P(C)(C)=O)n1 (stereo not shown) [compound 197] : 14.3

Form field GI50, entry COc1cc(N2CCN(C3(C)COC3)CC2)c(-c2cnn(C)c2)cc1Nc1ncc(Br)c(Nc2ccc3nccnc3c2P(C)(C)=O)n1 [compound 184] : 5.67

Record COc1cc(N2CCOCC2)c(-c2cnn(C)c2)cc1Nc1ncc(Br)c(Nc2ccc3nccnc3c2P(C)(C)=O)n1 [Compound 1] . Reported GI50: 5.61

// next entry
The compound listed as COc1cc(N2CCCN(C)CC2)c(-c2cnn(C)c2)cc1Nc1ncc(Br)c(Nc2ccc3nccnc3c2P(C)(C)=O)n1 [compound 12] has a reported GI50 of 45.9
